Biological target: T1, CC CKR1, stably expressed on HEK 293 cells (Homo sapiens (Human), UniProt P32246 1-355)
T1 construct: also called CC CKLR1
T1 sequence: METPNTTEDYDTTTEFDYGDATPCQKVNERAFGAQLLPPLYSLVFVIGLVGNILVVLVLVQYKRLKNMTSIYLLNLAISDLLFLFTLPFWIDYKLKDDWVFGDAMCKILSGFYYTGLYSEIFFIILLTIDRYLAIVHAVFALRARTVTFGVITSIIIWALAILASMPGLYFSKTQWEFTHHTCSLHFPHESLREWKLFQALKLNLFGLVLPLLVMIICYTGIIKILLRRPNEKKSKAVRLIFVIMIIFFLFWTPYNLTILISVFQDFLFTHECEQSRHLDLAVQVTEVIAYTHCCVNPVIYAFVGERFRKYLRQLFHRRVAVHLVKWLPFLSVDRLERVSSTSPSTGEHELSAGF
Assay: heterologous competition against ^125I-RANTES on CC CKR1 cells, 37° C.
pIC50: −log10 of the molar value.
readout.name: pIC50

Form field: reported pIC50 of MIP-1α (ligand, human, UniProt P10147 23-92, looked up, also called unlabeled MIP-1α) ASLAADTPTACCFSYTSRQIPQNFIADYFETSSQCSKPGVIFLTKRSRQVCADPSEEWVQKYVSDLELSA ~7.70
